Assayed target: Alpha4Beta2 (Rat Brain) (Rattus norvegicus, UniProt P09483+P12390)
Construct: purchased NIMH Psychoactive Drug Screening Program (PDSP)
Sequence (P09483 31-630): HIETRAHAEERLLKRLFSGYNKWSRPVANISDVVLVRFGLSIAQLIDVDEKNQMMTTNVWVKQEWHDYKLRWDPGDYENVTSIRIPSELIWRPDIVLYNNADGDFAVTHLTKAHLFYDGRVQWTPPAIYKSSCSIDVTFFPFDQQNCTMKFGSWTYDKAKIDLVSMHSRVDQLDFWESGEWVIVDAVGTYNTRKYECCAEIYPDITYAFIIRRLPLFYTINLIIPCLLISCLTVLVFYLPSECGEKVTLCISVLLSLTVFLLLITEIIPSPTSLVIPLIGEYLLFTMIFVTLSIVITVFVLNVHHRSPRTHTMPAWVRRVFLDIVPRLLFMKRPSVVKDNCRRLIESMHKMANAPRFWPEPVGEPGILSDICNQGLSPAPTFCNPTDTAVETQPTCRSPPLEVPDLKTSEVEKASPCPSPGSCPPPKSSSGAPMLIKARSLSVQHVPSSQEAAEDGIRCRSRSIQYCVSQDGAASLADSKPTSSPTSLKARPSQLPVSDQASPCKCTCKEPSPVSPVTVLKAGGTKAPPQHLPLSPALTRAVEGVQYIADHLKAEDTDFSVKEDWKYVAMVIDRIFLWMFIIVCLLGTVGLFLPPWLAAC
Sequence (P12390 25-500): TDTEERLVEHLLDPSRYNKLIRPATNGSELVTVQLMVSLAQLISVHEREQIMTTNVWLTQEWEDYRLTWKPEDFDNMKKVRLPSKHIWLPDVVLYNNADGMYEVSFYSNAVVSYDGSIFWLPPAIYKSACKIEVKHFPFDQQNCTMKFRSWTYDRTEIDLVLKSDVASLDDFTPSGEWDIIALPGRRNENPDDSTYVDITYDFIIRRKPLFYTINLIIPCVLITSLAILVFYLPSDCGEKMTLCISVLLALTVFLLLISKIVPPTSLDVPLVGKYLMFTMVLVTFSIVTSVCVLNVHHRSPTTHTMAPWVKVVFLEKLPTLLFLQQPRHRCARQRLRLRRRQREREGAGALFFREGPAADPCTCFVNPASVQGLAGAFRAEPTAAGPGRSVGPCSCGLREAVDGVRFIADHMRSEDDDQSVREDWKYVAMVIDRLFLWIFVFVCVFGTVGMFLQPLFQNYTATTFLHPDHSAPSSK
Experimental details: PDSP primary binding Alpha4Beta2 (Rat Brain)
Run parameters: primary binding, 10,000 nM; last figure of the line = mean of the 4 before it; read-out: Alpha4Beta2 (Rat Brain), PDSP raw data, mean
Experimental: To determine if any off-target receptor-binding effects are present, all the novel ligands were sent to the National Institute of Mental Health (NIMH), Psychoactive Drug Screening Program (PDSP). […] The hERG-binding was also determined. […] The binding of a ligand to a receptor, ion channel, or transporter was determined in the […] of 10 µM of the appropriate reference compound. […] Radioactivity was then counted on a Microbeta counter. […]
Provide the recorded inhibition at 10 µM for the entries that follow.
Field format: number, assumed %, no unit text.

GET /value?item= CCc1noc(-c2ncn3c2[C@@H](C)N=C(c2ccccc2F)c2cc(Cl)ccc2-3)n1 [Compound 36] &field=inhibition at 10 µM returns 3.25

GET /value?item= CCc1noc(-c2ncn3c2[C@@H](C)N=C(c2ccccc2F)c2cc(-c4ccccc4)ccc2-3)n1 [Compound 35] &field=inhibition at 10 µM returns -11.6

GET /value?item= C#Cc1ccc2c(c1)C(c1ccccn1)=N[C@@H](C)c1c(C(=O)N(C)C)ncn1-2 [Compound 31] &field=inhibition at 10 µM returns 2.48

GET /value?item= CCc1noc(-c2ncn3c2CN=C(c2ccccc2F)c2cc(C4CC4)ccc2-3)n1 [Compound 44] &field=inhibition at 10 µM returns -0.99

GET /value?item= C#Cc1ccc2c(c1)C(c1ccccc1Cl)=N[C@H](C)c1c(C(=O)N(C)CC)ncn1-2 [Compound 29] &field=inhibition at 10 µM returns 0.03

GET /value?item= C[C@H]1N=C(c2ccccc2F)c2cc(Cl)ccc2-n2cnc(-c3nc(C4CC4)no3)c21 [Compound 38] &field=inhibition at 10 µM returns 0.48

GET /value?item= C[C@H]1N=C(c2ccccc2F)c2cc(-c3ccccc3)ccc2-n2cnc(C(=O)N(C)C)c21 [Compound 5] &field=inhibition at 10 µM returns -5.7

GET /value?item= C#Cc1ccc2c(c1)C(c1ccccc1Cl)=N[C@H](C)c1c(C(=O)NC)ncn1-2 [Compound 21] &field=inhibition at 10 µM returns 0.7

---

Provide the recorded inhibition at 10 µM for the entries that follow.
Assayed target: V1B (Homo sapiens, UniProt P47901)
Construct: purchased NIMH Psychoactive Drug Screening Program (PDSP)
Sequence (P47901 1-424): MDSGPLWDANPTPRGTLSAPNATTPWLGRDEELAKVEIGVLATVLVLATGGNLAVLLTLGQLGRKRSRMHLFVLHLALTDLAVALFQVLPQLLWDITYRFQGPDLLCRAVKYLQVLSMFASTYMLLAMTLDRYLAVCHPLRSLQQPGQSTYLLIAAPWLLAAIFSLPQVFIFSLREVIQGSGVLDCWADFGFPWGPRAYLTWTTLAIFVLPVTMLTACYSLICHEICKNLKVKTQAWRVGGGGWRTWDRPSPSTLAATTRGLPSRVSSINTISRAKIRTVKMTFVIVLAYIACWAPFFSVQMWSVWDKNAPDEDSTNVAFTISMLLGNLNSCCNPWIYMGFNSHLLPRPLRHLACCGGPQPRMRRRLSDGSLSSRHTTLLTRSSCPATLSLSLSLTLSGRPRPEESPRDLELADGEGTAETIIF
Experimental details: PDSP primary binding V1B
Run parameters: primary binding, 10,000 nM; last figure of the line = mean of the 4 before it; read-out: V1B, PDSP raw data, mean
A complete answer gives the number and then names the unit.

GET /value?item= "C#Cc1ccc2c(c1)C(c1ccccn1)=N[C@@H](C)c1c(C(=O)N(C)C)ncn1-2" &field=inhibition at 10 µM returns 24.3%

GET /value?item= "C#Cc1ccc2c(c1)C(c1ccccc1Cl)=N[C@H](C)c1c(C(=O)NC)ncn1-2" &field=inhibition at 10 µM returns 45.8%

GET /value?item= "C#Cc1ccc2c(c1)C(c1ccccc1F)=N[C@H](C)c1c(C(=S)N(C)C)ncn1-2" &field=inhibition at 10 µM returns 1.4%

GET /value?item= "C[C@H]1N=C(c2ccccc2F)c2cc(-c3ccccc3)ccc2-n2cnc(C(=O)N(C)C)c21" &field=inhibition at 10 µM returns 1.4%

---

Provide the recorded inhibition at 90 min, 10000 nM for the entries that follow.
Assayed target: hERG K+ channel (Homo sapiens)
Construct: purchased NIMH Psychoactive Drug Screening Program (PDSP)
Sequence (Q12809 whole entry): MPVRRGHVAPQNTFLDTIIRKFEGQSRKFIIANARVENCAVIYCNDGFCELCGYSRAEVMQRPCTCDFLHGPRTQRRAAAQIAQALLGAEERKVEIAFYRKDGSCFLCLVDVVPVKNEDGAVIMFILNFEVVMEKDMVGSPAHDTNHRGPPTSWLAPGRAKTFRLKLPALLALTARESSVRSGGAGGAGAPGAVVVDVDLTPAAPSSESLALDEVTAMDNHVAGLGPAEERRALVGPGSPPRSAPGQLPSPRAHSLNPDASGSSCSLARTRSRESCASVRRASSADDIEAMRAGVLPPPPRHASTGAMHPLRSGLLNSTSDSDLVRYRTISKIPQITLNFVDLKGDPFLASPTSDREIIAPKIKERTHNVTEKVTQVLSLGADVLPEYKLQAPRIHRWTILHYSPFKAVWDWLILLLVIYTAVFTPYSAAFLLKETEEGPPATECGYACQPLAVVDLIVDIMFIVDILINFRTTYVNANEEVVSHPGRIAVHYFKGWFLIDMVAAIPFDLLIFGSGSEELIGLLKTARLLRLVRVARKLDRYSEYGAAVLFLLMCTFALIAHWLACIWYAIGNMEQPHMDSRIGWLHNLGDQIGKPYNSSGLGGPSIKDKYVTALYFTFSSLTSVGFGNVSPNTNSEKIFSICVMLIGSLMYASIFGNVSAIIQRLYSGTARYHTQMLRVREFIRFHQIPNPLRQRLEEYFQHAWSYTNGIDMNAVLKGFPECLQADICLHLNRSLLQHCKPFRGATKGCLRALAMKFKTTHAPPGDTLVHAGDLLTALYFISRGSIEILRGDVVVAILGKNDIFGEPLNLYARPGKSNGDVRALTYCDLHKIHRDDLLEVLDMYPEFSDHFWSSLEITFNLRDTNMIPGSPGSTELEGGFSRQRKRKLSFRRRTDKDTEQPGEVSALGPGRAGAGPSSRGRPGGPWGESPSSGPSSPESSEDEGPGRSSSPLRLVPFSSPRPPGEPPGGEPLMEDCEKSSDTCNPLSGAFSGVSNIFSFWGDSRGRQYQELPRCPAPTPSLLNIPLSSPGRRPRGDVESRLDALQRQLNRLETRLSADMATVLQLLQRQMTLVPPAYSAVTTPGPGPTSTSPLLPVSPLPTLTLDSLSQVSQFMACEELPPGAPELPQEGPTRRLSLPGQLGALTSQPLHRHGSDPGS
Experimental details: PDSP radioligand binding at hERG
Run parameters: human; at 10,000 nM; N = 5; read-out: Binding Affinity at hERG % Inhibition (Primary Binding)
Field format: number, assumed %, no unit text.

GET /value?item= "CCc1noc(-c2ncn3c2CN=C(c2ccccc2F)c2cc(C4CC4)ccc2-3)n1" &field=inhibition at 90 min, 10000 nM returns 33.2

GET /value?item= "C[C@H]1N=C(c2ccccc2F)c2cc(Cl)ccc2-n2cnc(-c3nc(C4CC4)no3)c21" &field=inhibition at 90 min, 10000 nM returns 1.86

GET /value?item= "C#Cc1ccc2c(c1)C(c1ccccn1)=N[C@@H](C)c1c(C(=O)N(C)C)ncn1-2" &field=inhibition at 90 min, 10000 nM returns 0.95

GET /value?item= "C[C@H]1N=C(c2ccccc2F)c2cc(-c3ccccc3)ccc2-n2cnc(C(=O)N(C)C)c21" &field=inhibition at 90 min, 10000 nM returns -0.48

GET /value?item= "C#Cc1ccc2c(c1)C(c1ccccc1F)=N[C@H](C)c1c(C(=S)N(C)C)ncn1-2" &field=inhibition at 90 min, 10000 nM returns -4.4

GET /value?item= "C#Cc1ccc2c(c1)C(c1ccccn1)=N[C@@H](C)c1c(C(=O)NC)ncn1-2" &field=inhibition at 90 min, 10000 nM returns -4.24

GET /value?item= "CCc1noc(-c2ncn3c2[C@@H](C)N=C(c2ccccc2F)c2cc(-c4ccccc4)ccc2-3)n1" &field=inhibition at 90 min, 10000 nM returns 37.3

GET /value?item= "C#Cc1ccc2c(c1)C(c1ccccc1Cl)=N[C@H](C)c1c(C(=O)NC)ncn1-2" &field=inhibition at 90 min, 10000 nM returns -5.73

GET /value?item= "CCc1noc(-c2ncn3c2[C@@H](C)N=C(c2ccccc2F)c2cc(C4CC4)ccc2-3)n1" &field=inhibition at 90 min, 10000 nM returns 4.34

GET /value?item= "C#Cc1ccc2c(c1)C(c1ccccc1Cl)=N[C@H](C)c1c(C(=O)N(C)CC)ncn1-2" &field=inhibition at 90 min, 10000 nM returns -1.55

GET /value?item= "CC(C)c1noc(-c2ncn3c2[C@@H](C)N=C(c2ccccc2F)c2cc(Cl)ccc2-3)n1" &field=inhibition at 90 min, 10000 nM returns 4.21

---

Provide the recorded inhibition at 10 µM for the entries that follow.
Assayed target: SERT (Homo sapiens, UniProt P31645)
Construct: purchased NIMH Psychoactive Drug Screening Program (PDSP)
Sequence (P31645 whole entry): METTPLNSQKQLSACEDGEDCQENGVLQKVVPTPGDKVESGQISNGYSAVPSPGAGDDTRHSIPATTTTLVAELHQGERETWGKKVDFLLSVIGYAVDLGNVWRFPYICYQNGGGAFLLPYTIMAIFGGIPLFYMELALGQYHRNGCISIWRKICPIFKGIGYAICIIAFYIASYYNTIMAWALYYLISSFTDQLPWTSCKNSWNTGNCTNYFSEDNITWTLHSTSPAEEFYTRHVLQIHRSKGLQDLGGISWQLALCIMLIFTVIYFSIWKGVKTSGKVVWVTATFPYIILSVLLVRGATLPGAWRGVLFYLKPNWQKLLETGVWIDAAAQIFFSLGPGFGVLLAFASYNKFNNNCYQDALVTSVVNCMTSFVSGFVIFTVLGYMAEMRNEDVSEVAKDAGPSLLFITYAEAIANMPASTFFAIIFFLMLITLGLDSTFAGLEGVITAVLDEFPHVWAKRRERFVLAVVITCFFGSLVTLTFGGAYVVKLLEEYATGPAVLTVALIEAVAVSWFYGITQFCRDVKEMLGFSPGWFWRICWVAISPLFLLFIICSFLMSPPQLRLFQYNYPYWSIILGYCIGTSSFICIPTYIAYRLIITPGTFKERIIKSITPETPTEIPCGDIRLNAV
Experimental details: PDSP primary binding SERT
Run parameters: primary binding, 10,000 nM; last figure of the line = mean of the 4 before it; some tables list SERT twice; read-out: SERT, PDSP raw data, mean
Field format: number, assumed %, no unit text.

GET /value?item= "C[C@H]1N=C(c2ccccc2F)c2cc(-c3ccccc3)ccc2-n2cnc(C(=O)N(C)C)c21" &field=inhibition at 10 µM returns -9.27

GET /value?item= "C#Cc1ccc2c(c1)C(c1ccccc1Cl)=N[C@H](C)c1c(C(=O)NC)ncn1-2" &field=inhibition at 10 µM returns 9.24

GET /value?item= "C#Cc1ccc2c(c1)C(c1ccccc1Cl)=N[C@H](C)c1c(C(=O)N(C)CC)ncn1-2" &field=inhibition at 10 µM returns 6.07

GET /value?item= "C[C@H]1N=C(c2ccccc2F)c2cc(Cl)ccc2-n2cnc(-c3nc(C4CC4)no3)c21" &field=inhibition at 10 µM returns 13.1

GET /value?item= "C#Cc1ccc2c(c1)C(c1ccccn1)=N[C@@H](C)c1c(C(=O)NC)ncn1-2" &field=inhibition at 10 µM returns -7.1

GET /value?item= "CCc1noc(-c2ncn3c2CN=C(c2ccccc2F)c2cc(C4CC4)ccc2-3)n1" &field=inhibition at 10 µM returns 7.2

GET /value?item= "C#Cc1ccc2c(c1)C(c1ccccc1F)=N[C@H](C)c1c(C(=S)N(C)C)ncn1-2" &field=inhibition at 10 µM returns -9.27

GET /value?item= "CCc1noc(-c2ncn3c2[C@@H](C)N=C(c2ccccc2F)c2cc(C4CC4)ccc2-3)n1" &field=inhibition at 10 µM returns -3.28

GET /value?item= "C#Cc1ccc2c(c1)C(c1ccccn1)=N[C@@H](C)c1c(C(=O)N(C)C)ncn1-2" &field=inhibition at 10 µM returns 4.04

GET /value?item= "CCc1noc(-c2ncn3c2[C@@H](C)N=C(c2ccccc2F)c2cc(Cl)ccc2-3)n1" &field=inhibition at 10 µM returns 3.09

GET /value?item= "CCc1noc(-c2ncn3c2[C@@H](C)N=C(c2ccccc2F)c2cc(-c4ccccc4)ccc2-3)n1" &field=inhibition at 10 µM returns 17.2
